Below: a set of entries, each annotated with reported Ki.
target: Norepinephrine transporter (Rattus norvegicus); experiment: Ability to inhibit [3H]NE uptake through NET in rat synaptosomes
Sequence (Q9WTR4 whole entry): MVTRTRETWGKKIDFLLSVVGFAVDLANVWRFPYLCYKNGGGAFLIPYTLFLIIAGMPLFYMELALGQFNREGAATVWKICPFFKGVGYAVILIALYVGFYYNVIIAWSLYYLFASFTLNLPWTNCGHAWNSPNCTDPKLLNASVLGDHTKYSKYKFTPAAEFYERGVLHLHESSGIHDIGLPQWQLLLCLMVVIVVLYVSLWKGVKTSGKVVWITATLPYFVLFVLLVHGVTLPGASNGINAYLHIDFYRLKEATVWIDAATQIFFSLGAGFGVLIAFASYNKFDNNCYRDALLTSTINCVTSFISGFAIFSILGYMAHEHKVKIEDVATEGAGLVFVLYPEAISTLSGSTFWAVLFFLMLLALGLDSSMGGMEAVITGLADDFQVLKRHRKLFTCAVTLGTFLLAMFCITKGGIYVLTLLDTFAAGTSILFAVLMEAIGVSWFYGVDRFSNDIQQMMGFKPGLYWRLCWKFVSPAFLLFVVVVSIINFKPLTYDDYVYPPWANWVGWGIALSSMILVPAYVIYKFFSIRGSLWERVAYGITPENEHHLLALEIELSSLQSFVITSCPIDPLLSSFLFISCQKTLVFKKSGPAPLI
Expressed in nM, but write only the number.

Name the reported Ki value associated with the compound CN1CC[C@@H](c2ccc(Cl)cc2)[C@@H](CSCCOC(=O)c2ccccc2)C1
143

Moving on to CN1CC[C@H](c2ccc(Cl)cc2)[C@H](CSCC(=O)N2CCCCC2)C1
13

Moving on to CN1CC[C@@H](c2ccc(Cl)cc2)[C@H](CSCCO)C1
123

---

molecular target: UniProtKB P23977; test: Ability to inhibit [3H]DA uptake through DAT in rat synaptosomes
pKi: −log10 of the molar value.
Give TRUE when the value for pKi is at least 7. Give FALSE when it is less.

>>> classification("CN1CC[C@@H](c2ccc(Cl)cc2)[C@H](CSCC(=O)N2CCCCC2)C1")
"FALSE"
>>> classification("CNC(=O)CSC[C@H]1CN(C)CC[C@H]1c1ccc(Cl)cc1")
"FALSE"
>>> classification("CN1CC[C@H](c2ccc(Cl)cc2)[C@H](CSCC(N)=O)C1")
"TRUE"
>>> classification("CC(=O)OCCSC[C@@H]1CN(C)CC[C@@H]1c1ccc(Cl)cc1")
"TRUE"
>>> classification("CN1CC[C@@H](c2ccc(Cl)cc2)[C@H](CSCCOC(=O)c2ccccc2)C1")
"FALSE"

Let us examine a further case.
Item CN1CC[C@H](c2ccc(Cl)cc2)[C@H](CSCCO)C1 with pKi of 7 or above?
TRUE

---

molecular target: Monoamine transporters; serotonin & dopamine (Rattus norvegicus) (UniProt P31652+P23977); experiment: Selectivity towards rat SERT over DAT; assay type: protein assay
Sequence (P23977 whole entry, looked up): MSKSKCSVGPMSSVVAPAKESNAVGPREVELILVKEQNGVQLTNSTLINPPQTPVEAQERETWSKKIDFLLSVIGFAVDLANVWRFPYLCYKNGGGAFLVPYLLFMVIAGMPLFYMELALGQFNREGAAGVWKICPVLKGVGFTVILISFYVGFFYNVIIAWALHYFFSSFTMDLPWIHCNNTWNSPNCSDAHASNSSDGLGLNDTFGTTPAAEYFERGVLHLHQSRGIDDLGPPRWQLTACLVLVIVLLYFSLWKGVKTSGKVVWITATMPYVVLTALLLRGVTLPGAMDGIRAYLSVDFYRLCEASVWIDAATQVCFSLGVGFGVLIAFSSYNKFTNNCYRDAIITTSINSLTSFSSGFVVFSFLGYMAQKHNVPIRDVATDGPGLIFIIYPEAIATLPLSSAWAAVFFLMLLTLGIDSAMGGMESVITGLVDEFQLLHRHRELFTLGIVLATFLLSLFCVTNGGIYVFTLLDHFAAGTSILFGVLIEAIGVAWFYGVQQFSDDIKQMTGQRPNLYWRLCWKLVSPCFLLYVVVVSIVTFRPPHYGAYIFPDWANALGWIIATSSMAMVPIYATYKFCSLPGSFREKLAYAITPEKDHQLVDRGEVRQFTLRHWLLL
Sequence (P31652 whole entry, looked up): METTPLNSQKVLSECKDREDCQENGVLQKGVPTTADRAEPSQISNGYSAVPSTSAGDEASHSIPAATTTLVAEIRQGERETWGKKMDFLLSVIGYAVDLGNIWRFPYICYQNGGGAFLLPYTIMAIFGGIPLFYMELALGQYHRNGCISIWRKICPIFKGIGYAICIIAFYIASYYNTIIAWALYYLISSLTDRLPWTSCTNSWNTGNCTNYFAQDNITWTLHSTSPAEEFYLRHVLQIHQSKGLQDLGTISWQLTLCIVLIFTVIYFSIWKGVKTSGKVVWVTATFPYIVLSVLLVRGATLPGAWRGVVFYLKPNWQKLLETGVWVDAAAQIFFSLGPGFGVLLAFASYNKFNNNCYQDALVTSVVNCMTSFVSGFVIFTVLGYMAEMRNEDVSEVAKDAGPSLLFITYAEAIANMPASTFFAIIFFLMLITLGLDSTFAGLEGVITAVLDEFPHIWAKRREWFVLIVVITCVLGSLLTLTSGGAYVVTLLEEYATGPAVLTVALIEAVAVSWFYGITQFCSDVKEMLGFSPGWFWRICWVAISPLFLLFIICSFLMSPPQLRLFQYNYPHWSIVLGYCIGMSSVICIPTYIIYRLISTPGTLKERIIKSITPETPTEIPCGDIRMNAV
measured-endpoint: Ratio Ki
Form rule: numeric answer, no unit written next to it.

>>> value("CC(=O)OCCSC[C@@H]1CN(C)CC[C@H]1c1ccc(Cl)cc1")
0.24
>>> value("COC(=O)CSC[C@@H]1CN(C)CC[C@H]1c1ccc(Cl)cc1")
0.03
>>> value("CN1CC[C@H](c2ccc(Cl)cc2)[C@H](CSCCO)C1")
5
>>> value("CC(C)NC(=O)CSC[C@@H]1CN(C)CC[C@H]1c1ccc(Cl)cc1")
0.21
>>> value("CN1CC[C@@H](c2ccc(Cl)cc2)[C@@H](CSCC(=O)NCCc2ccccc2)C1")
1.08
>>> value("COC(=O)CSC[C@@H]1CN(C)CC[C@@H]1c1ccc(Cl)cc1")
4.88

Name the reported Ratio Ki value associated with the compound CN1CC[C@@H](c2ccc(Cl)cc2)[C@H](CSCC(=O)NCc2ccccc2)C1
0.48

Moving on to CN1CC[C@@H](c2ccc(Cl)cc2)[C@@H](CSCCO)C1
1.91

Moving on to CN1CC[C@H](c2ccc(Cl)cc2)[C@H](CSCC(=O)N2CCCCC2)C1
1.22

---

target: Monoamine transporters; serotonin & dopamine (Rattus norvegicus) (UniProt P31652+P23977); assay: Selectivity towards rat SERT over DAT; assay type: protein assay
Give 1 when the value for Ratio Ki is at least 0.7. Give -1 when it is less.

Example cases with answers are listed next.
>>> classification("CC(C)NC(=O)CSC[C@H]1CN(C)CC[C@H]1c1ccc(Cl)cc1")
-1
>>> classification("CN1CC[C@@H](c2ccc(Cl)cc2)[C@@H](CSCC(=O)NCc2ccccc2)C1")
-1
>>> classification("CN1CC[C@@H](c2ccc(Cl)cc2)[C@@H](CSCC(=O)N2CCCCC2)C1")
-1
>>> classification("CC(C)NC(=O)CSC[C@@H]1CN(C)CC[C@@H]1c1ccc(Cl)cc1")
1
>>> classification("CN1CC[C@H](c2ccc(Cl)cc2)[C@H](CSCC(N)=O)C1")
-1

Item CN1CC[C@@H](c2ccc(Cl)cc2)[C@H](CSCCOC(=O)c2ccccc2)C1 with Ratio Ki of 0.7 or above?
-1

Moving on to CN1CC[C@@H](c2ccc(Cl)cc2)[C@H](CSCC(N)=O)C1
-1
